Values of pIC50 for Serine/threonine-protein kinase ATR (Homo sapiens), collected from a number of published sources:
Numbers only, as −log10 of the molar value.

{"compound-smiles": "Cc1cc(-c2nc(N3CCOC[C@H]3C)c3ccn(S(C)(=O)=O)c3n2)c2cc[nH]c2c1", "pIC50": 8.64}

I would be grateful if you could provide pIC50 for each of the following entries.
1. Cc1nn(C(=O)N2CCNCC2)c(C)c1-c1cc(N2CCOC[C@H]2C)nc(-c2cc(F)cc3[nH]ccc23)n1
2. C[C@@H]1COCCN1c1cc(C2(O)CCCCC2)cc(Nc2ccn[nH]2)n1
3. Cc1nc(F)ccc1-c1cc(N2CCOC[C@H]2C)nc(-c2ccnc3[nH]ccc23)n1
4. CNc1nc2ccccc2n1-c1nc(-c2c(C(F)(F)F)nn(CS(C)(=O)=O)c2C)cc(N2CCOC[C@H]2C)n1
5. C[C@@H]1COCCN1c1nc(-c2cc(C#N)cc3[nH]ccc23)nc2c1ccn2S(C)(=O)=O
6. Cc1nnc(C)n1-c1cc(-c2cc(F)cc3[nH]ccc23)nc(N2CCOC[C@H]2C)n1

1: 8.52; 2: 7.28; 3: 7.11; 4: 7.47; 5: 8.03; 6: 7.34
